# protocol: folding stability dG unfold from chymotrypsin proteolysis; higher = more stable
experimental readout: folding stability dG unfold (kcal/mol)
One number for each entry, in kcal/mol.

Use the examples below as a reference point.
sequence data	observed value
SAGGSAGGKVRVITVKPGETITVEGLPPGAVLITLPDGSVKEFPAGATIKVPPSAEIVVVEKEDSAGGSAGG [r6_866_TrROS_Hall]	0.885
SASKKPKLIIVDIVIKPEELKKMKPEELIEKILKELGIPKEKDVKIDLFLEPVELDGEEYYIIPALITNSAG [r14_334_TrMRF]	1.08
SAGGMKIEITVSPVGDVVNVEVKIELPEGPVEVVDETPAEVAPDGSIHIKLKLKLPNGPWLEMEIEVSAGGS [r8_449_JUSTAS]	3.97

Hi! Can you tell me folding stability dG unfold for each of these sequences?
1. SAGGKTVTTPEQILELIKENPGKTYTITITVPKENQKKVEELKKALEEAGLTVEENENGTLTVTIKPSAGGS [r16_335_TrROS_Hall]
2. SVYIPIPMGDPEGLKEMLDFIKNILEKNQENGYENVPIPIHMPNGGPFEFPIDPNSTLEEQLDQIEKFIESA [r9_127_TrROS]
3. SAGGSASMIFADDPAQAEAYVKPLFPNGPPFDIVELSEEEGKELVEKLKKEGKPYKVIVIKDPSKPSAGGSA [r15_567_JUSTAS]
4. SAGGARREIVIEIEADTLEEALAAAREALAALEDPEDLTVTIVVRLPPPPPPPRPRRVRLDGEEVELRSAGG [r13_718_TrROS_Hall]

1: 3.89; 2: 0.663; 3: 0.507; 4: 1.32

----------
# protocol: folding stability dG unfold from trypsin proteolysis; higher = more stable
experimental readout: folding stability dG unfold (kcal/mol)
Numbers only, in kcal/mol.

Use the examples below as a reference point.
sequence data	observed value
SAGGSMSPWHWARHIAKKLRKKFPPGKKVRIKIEYDDGPVEFEIPPGEWIPIPSNAPIEILNIKVKSAGGSA [r2_391_TrROS]	1.97
SAPPRTFIIPIERNPDGNVRLNIRMPGMEIEYEFPPGKDAEDALDKLSPHPGFNVELTEVDPNWIKITFSAG [r14_404_TrROS]	1.3

Hi! Can you tell me folding stability dG unfold for each of these sequences?
1. SAGGSAGGSKIEFTVPDNDELIEYIRKWFQDNGGQIKNIKIEPTPPNQVKVEIEINPGDPWFQSAGGSAGGS [r12_647_TrROS]
2. SAGGSAGGSAAKIVDINISVRRSPENGYWKIPITIRIKGPNGKEQEIDLTMVFKIPPGQPLFSAGGSAGGSA [r18_95_TrROS]

1: 1.74; 2: 2.83

----------
# protocol: folding stability dG unfold from trypsin proteolysis; higher = more stable
So basically: folding stability dG unfold at 2 kJ/mol or higher? That is Yes. Lower than 2 kJ/mol? That is No.

Consider the worked cases shown below.
sequence data	class assignment
SAGGSAGGPPDDVEPEEFTFRFGDKPIKVEILRVNPDNNNIMIKHESNGKPKTMMFPPEDLEKLSAGGSAGG [r6_421_TrROS]	No
SAGGSAGGSAGGAIVTTTTTKAPVFAPDGTVVAEITTTTVTVILPETPPSLLPEVLERLASAGGSAGGSAGG [r7_450_JUSTAS]	Yes
SAGGFIVVPIKAKSLEEALEKAREIAAALGIPGTLEDPRVDLDDFLKNYKPDTEVRVYVRHPDGVIDELSAG [r5_503_TrMRF]	Yes
SFTVERNVYRIENPPKLVVNVIITAEDGTPVPPEVVEEAVRELEKAGFPVKKVSVTPLPDGSVLVTVEVDVS [r1_408_TrMRF]	Yes
SAGGSLVEKVKAIFAEKGIPVNPITTTPTSFTAKTPTGPFTVELPGNSTVTVSPDGTATVTVPPGLSSAGGS [r8_297_JUSTAS]	Yes

Could you please find out whether SAGGSAGGSMYVVRAVIRRPKAVPPPLAEEEIDIPVADREITAEEIARLFTPPGYELVRIEADSAGGSAGGS [r12_611_TrMRF] has folding stability dG unfold that meets 2 kJ/mol or exceeds it?
No

Could you please find out whether SAGGEVKVEIKYDKKKNKIEIKVIVRDKETGEWKELSAEEIAKLLKKKLKLPNVKEIKVEVYEPGEKPSAGG [r13_327_TrROS_Hall] has folding stability dG unfold that meets 2 kJ/mol or exceeds it?
Yes

----------
# protocol: folding stability dG unfold (combined trypsin and chymotrypsin); higher = more stable
So basically: folding stability dG unfold at 1 kcal/mol or higher? That is YES. Lower than 1 kcal/mol? That is NO.

sequence data	class assignment
SAGGSKKVDIKPGKVKKVEVKTLPNGKKLLVLYFPLEDGKEKVVVISSDFKTPEEALEAAYKQLGKSAGGSA [r2_347_TrMRF]	YES

Could you please find out whether SAGGSAGGSAGGIEDMAEKNPDWKIVEPIEIEIPYYNPDGKWYEVEYTIFVIVPPGDEISAGGSAGGSAGGS [r10_0_TrROS] has folding stability dG unfold that meets 1 kcal/mol or exceeds it?
YES

Could you please find out whether SAGGWRLNINFPPDNIEKIVEKLRDEFPGWEIKPDKIEYNPDDGQYTIPIEVKSKNPRAAEKIQDAIQSAGG [r13_539_TrROS] has folding stability dG unfold that meets 1 kcal/mol or exceeds it?
NO

Could you please find out whether SAGGNRKFTLIIRIKAPPGDPDKMKEEVKEIANEIADIFRDHGVKVKVKVEYDPDNGEIYVQVEFEVPSAGG [r13_755_TrROS] has folding stability dG unfold that meets 1 kcal/mol or exceeds it?
YES

Could you please find out whether SAGGSALKIPSGKKYTVVVKDPNKPVEYVADVIERHPDSILIEVKDPNSSKTKKITVPTNVITIDLSAGGSA [r15_381_JUSTAS] has folding stability dG unfold that meets 1 kcal/mol or exceeds it?
NO

Could you please find out whether SNPWQIKFRNPNRPVEIPIQMNPDDGYVGISVRMRKPGKPKTHTITYKVKNIEDLLDHLEDLPPGFEIEPSA [r9_713_TrROS] has folding stability dG unfold that meets 1 kcal/mol or exceeds it?
NO

Could you please find out whether SAGGSAGGSGVTIPIWYKMDPGQPVPTAEEIQNIINELGFPIKDIKVQYHPDNGYVRAEITVKSAGGSAGGS [r12_1052_TrROS] has folding stability dG unfold that meets 1 kcal/mol or exceeds it?
YES

----------
Exercise: for every item that follows, state its recorded folding stability dG unfold.
# protocol: folding stability dG unfold from chymotrypsin proteolysis; higher = more stable
Numbers only, in kcal/mol.

sequence data	experimental readout	observed value
SAGGSAGGSAGGSSVVIVADSAEEAKAALKELGIKDAKVVPLKPVKVFTDEQLKELKKKSAGGSAGGSAGGS [r4_101_TrROS_Hall]	folding stability dG unfold	0.943
SAGGSAGGSAGKLKIKKVKVVKTETFTLPNGYTIKVSYVEVEVDGKKYLFKSVEIYPKKESAGGSAGGSAGG [r11_129_TrROS_Hall]	folding stability dG unfold	3.09
SAGGSAGGSVESATTTITITASLTPEEVEEIIEELKKKGLNVKKVEIEREPETGSVTITVTVNPSAGGSAGG [r6_514_JUSTAS]	folding stability dG unfold	2.92
SMTITFKTEEEAKKAAEELLKELEKKLKPGQKIKITVTTEDGKTITIEIEIKPPKKEVEVDEETGELKEKSA [r9_596_TrROS_Hall]	folding stability dG unfold	2.26
SAGGSAGGSAGEFELLSVEYFPPIGRVRVAYRRGDLVLVVDFFNPENPEIRPVSLSDELGSAGGSAGGSAGG [r17_145_TrMRF]	folding stability dG unfold	2.48
SAGGSMITLTFPAPREVAVPAIEAAAEKHGVTILSVEFDPATGRLTVTVDSSLPEEEVRAMVAAVLASAGGS [r8_338_JUSTAS]	folding stability dG unfold	4.47

Hi! Can you tell me folding stability dG unfold for each of these sequences?
1. SAGGSEEVEEEPPVVVTVRLTIELTLADGSKVRVEVELVRTADGRLLLKIRVVNEDTGEVYEFTFPSAGGSA [r2_484_TrROS_Hall]
2. SAGGKKKLTLEIKIKVPKEEEEKAKEKAKKLAEELAKKLKEAGYKVKVTVEIDEETGEITVKVEVELPSAGG [r13_755_TrROS_Hall]
3. SAGPVTIPIFYRVPPGEPMTPEAKEFAIELAKYIARLFPPGYKIEIDSIEWERHPNYYYFRVTIEIEPPSAG [r5_121_TrROS]

4.86
3.54
3.8

Hi! Can you tell me folding stability dG unfold for each of these sequences?
1. SAGGSAGGSAMTLEEKALESEELKKKIEEAPPSTKLITFELPGGEKITFTKNPDGSVVLSPSAGGSAGGSAG [r3_124_JUSTAS]
2. SAPPPVQTLTLTVYDPETGRLVKIEVTRRPDGTLEVRVEVVDLETNEVTTETITLPGLTLDELLKLLEEASA [r9_618_TrROS_Hall]
3. SAGGSAGGSAGGPSSLLDGTPVELSVSPVEVNSVSTVTLPNGSTVPVSKKVKKTVVSVVASAGGSAGGSAGG [r7_90_JUSTAS]
4. KKKKKKKKKKKKKEKVKVRIRIRLKVKDKETGEWKEIEVEIEIEMSKEEAEEIAKKLAEKYNFEIVEIEIES [r1_488_TrROS_Hall]

[1.41, 4.02, 0.61, 3.46]

Please indicate folding stability dG unfold recorded for SAGGMSVEVDWGETTRRLTFYDESGNPVADAEEPVLDPLTGLSTSRGVSLEELARRAGVPVELPERRSAGGS [r16_778_JUSTAS]
0.764
